System: PIK3CD (Human) | Read-out: IC50 | Origin: multiple publications

Consider the worked cases shown below.
Cc1cccc2cc([C@H](C)Nc3ncnc4cccnc34)nc(OC3CCN(C(C)C)CC3)c12	< 100 nM
Cc1nc([C@H](C)Nc2ncnc3[nH]cnc23)cc2cccc(-c3cccnc3)c12	< 100 nM
COc1ccc(C2(c3cc(-c4sc(NC(=O)N5CCC[C@H]5C(N)=O)nc4C)ccn3)CC2)cc1	804 nM
Cc1cccc2cc(C(C)Nc3ncnc4[nH]cnc34)n(C(C)C)c(=O)c12 (stereo not drawn)	< 100 nM
Cc1noc2nc(CSc3ncnc4[nH]cnc34)n(-c3ccccc3)c(=O)c12	1200 nM

Please respond with reported IC50 (system PIK3CD (Human)) for CC(N)C(=O)N1CCN(c2cnc3ccc(-c4ccc5oc(N)nc5c4)cc3n2)CC1 (stereo not drawn) .
< 1000 nM

Answer with IC50 of "CN1CCC[C@@H](C(=O)N[C@H]2CC[C@H](Nc3nc(N4CCOCC4)cc(-n4c(C(F)F)nc5ccccc54)n3)CC2)C1" measured for PIK3CD (Human).
4.6 nM

Provide IC50, tested on PIK3CD (Human), for "C[C@H](Nc1ncnc2[nH]cnc12)c1cc2cccc(Cl)c2c(OCC(=O)N2CCOCC2)n1" .
< 100 nM

Lab note: PIK3CD (Human) assay, enter IC50 for "C[C@@H]1C[C@H](N2CCC(CNc3nc(N4CCOCC4)cc(-n4c(C(F)F)nc5ccccc54)n3)CC2)C[C@H](C)O1" here
5.8 nM

Print PIK3CD (Human) IC50 for "Cc1cccc2cc(Cn3nc(-c4ccn[nH]4)c4c(N)ncnc43)n(-c3ccccc3F)c(=O)c12" .
< 1000 nM

Give PIK3CD (Human) IC50 for the following molecule: CC(F)C(C)N(C)[C@H]1CC[C@H](CNc2nc(N3CCOCC3)cc(-n3c(C(F)F)nc4ccccc43)n2)CC1 (stereo partly drawn)
16 nM

Print PIK3CD (Human) IC50 for "CS(=O)(=O)N1CCN(Cc2csc3c(-c4cncnc4)nc(N4CCOCC4)nc23)CC1" .
200 nM

Fetch value of IC50 on PIK3CD (Human) for "Nc1nc2cc(-c3ccc4ncc(N5CCN(C(=O)[C@@H]6CCCN6)CC5)nc4c3)ccc2o1" .
< 100 nM

Please respond with reported IC50 (system PIK3CD (Human)) for Cc1nn(C(C)c2cc(Cl)c(F)c3c2OC(C)CN(S(C)(=O)=O)C3)c2ncnc(N)c12 (single isomer, unassigned) .
≤ 100 nM

# return IC50 for "O=C(c1cnc2ccc(-c3cnc4cc[nH]c4c3)cn12)N1CCOCC1" , test system: PIK3CD (Human)
> 10000 nM
